Measured values drawn from the supplement of paper PMC10567573 for this set.

Known protein stability index of a selection of variants
B1: KRT13 (parent)
chain: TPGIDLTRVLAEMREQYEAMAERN

variants of: B1; experiment: protein stability index of a GFP-peptide fusion (GPS, HEK-293T) (PSI 1-6); higher = more stable; settings: c terminus: a fixed tail appended;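 note: lentivirally expressed fusions sorted by FACS into six bins by GFP to DsRed ratio, PSI derived from sequencing read proportions per bin multiplied by bin number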

Solved entries (count: 4):
Task: Tell me the measured protein stability index of T7S , please.
Result: 3.07

Task: Tell me the measured protein stability index of R14D , please.
Result: 5.07

Task: Tell me the measured protein stability index of G3K , please.
Result: 1.99

Task: Tell me the measured protein stability index of M20R , please.
Result: 4.68

New cases:
Task: Tell me the measured protein stability index of I4T , please.
Result: 3.31

Task: Tell me the measured protein stability index of G3C , please.
Result: 2.63

Task: Tell me the measured protein stability index of A11P , please.
Result: 4.65
